- STUDY_TARGET: MAGE-A11:PCF11 (Homo sapiens (Human))
- Sequence (P43364 218-429): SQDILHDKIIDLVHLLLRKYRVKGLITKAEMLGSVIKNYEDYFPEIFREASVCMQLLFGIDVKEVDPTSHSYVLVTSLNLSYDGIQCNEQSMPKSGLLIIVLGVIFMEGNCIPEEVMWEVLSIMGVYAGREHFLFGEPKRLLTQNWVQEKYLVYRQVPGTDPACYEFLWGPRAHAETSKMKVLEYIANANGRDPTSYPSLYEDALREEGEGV
- PROCEDURE_SUMMARY: TR-FRET single point screening at 15 μM
- Assay type: binding
- Design: unit not given here
- ASSAY_CONDITIONS: single point TR-FRET screening of quinoline compounds against MAGE-A11:PCF11; 15 μM
We begin with a simple list: items and their reported TR-FRET signal.

Worked cases, answers included:
1) COc1ccc(C(F)(F)F)cc1CN(CCCNc1ccnc2cc(Cl)ccc12)Cc1ccccc1 [SJ000520450] : 23.18
2) CCOC(=O)c1cnc2c(Cl)cccc2c1NCCCN1CCOCC1 [SJ000279431] : 4.102
3) COC(=O)CCCCCNCCCNc1ccnc2cc(Cl)ccc12 [SJ000521021] : 39.12

Query block: So what does the record say about TR-FRET signal for Clc1ccc2c(NCCCNCc3ccoc3)ccnc2c1 [SJ000520913] ?
Result block: −11.15

Query block: So what does the record say about TR-FRET signal for COc1ccc(-c2ccc3c(NCCCNCc4ccco4)ccnc3c2)cc1 [SJ000311294] ?
Result block: 7.824

Query block: So what does the record say about TR-FRET signal for Clc1ccc2c(NCCCN(CCOCc3ccccc3)Cc3ccccc3)ccnc2c1 [SJ000357583] ?
Result block: 13.24

Query block: So what does the record say about TR-FRET signal for FC(F)(F)Oc1ccc(CN(CCCNc2ccnc3cc(Cl)ccc23)Cc2ccccc2)cc1 [SJ000520460] ?
Result block: 25.05

Query block: So what does the record say about TR-FRET signal for CCCN(CCCNc1c2ccc(Cl)cc2nc2ccc(OC)cc12)CC1CCOC1 (stereo not drawn) [SJ000575149] ?
Result block: −35.94

Query block: So what does the record say about TR-FRET signal for CCCCCN(CCC)CCCNc1ccnc2cc(C(F)(F)F)ccc12 [SJ000361271] ?
Result block: 30.93

Query block: So what does the record say about TR-FRET signal for CCCN(CCCNc1ccnc2cc(Cl)ccc12)Cc1ccccc1OC(F)(F)F [SJ000357595] ?
Result block: −21.87

Query block: So what does the record say about TR-FRET signal for CCCN(CCCNc1ccnc2cc(Cl)ccc12)CC1CCCCC1 [SJ000522751] ?
Result block: 15.63

Query block: So what does the record say about TR-FRET signal for Clc1ccc2c(NCCCN(Cc3ccccc3)Cc3ccc4ccccc4c3)ccnc2c1 [SJ000361182] ?
Result block: 22.05

Query block: So what does the record say about TR-FRET signal for Clc1ccc2c(NCCCNCc3cc(Br)cs3)ccnc2c1 [SJ000521028] ?
Result block: 22.11

Query block: So what does the record say about TR-FRET signal for Clc1ccc2c(NCCCN(Cc3ccccc3)CC3CCCCC3)ccnc2c1 [SJ000361171] ?
Result block: 28.21

Query block: So what does the record say about TR-FRET signal for CCCN(CCCNc1ccnc2cc(C(F)(F)F)ccc12)CCC(C)(C)C [SJ000520476] ?
Result block: 32.33

Query block: So what does the record say about TR-FRET signal for Fc1cccc(C(F)(F)F)c1CN(CCCNc1ccnc2cc(Cl)ccc12)Cc1ccccc1 [SJ000520467] ?
Result block: 22.01

Query block: So what does the record say about TR-FRET signal for Clc1ccc2c(NCCCN(Cc3ccccc3)Cc3ccco3)ccnc2c1 [SJ000312668] ?
Result block: 0.5217

Query block: So what does the record say about TR-FRET signal for CCC(CC)CNCCCNc1ccnc2cc(Cl)ccc12 [SJ000361103] ?
Result block: 16.55

Query block: So what does the record say about TR-FRET signal for Clc1ccc(CN(CCCNc2ccnc3cc(Cl)ccc23)Cc2ccccc2)c(Cl)c1 [SJ000361184] ?
Result block: 25.5

Query block: So what does the record say about TR-FRET signal for CCCN(CCCNc1ccnc2cc(Cl)ccc12)CCOCc1ccccc1 [SJ000357577] ?
Result block: −13.18

Query block: So what does the record say about TR-FRET signal for CCCN(CCCNc1ccnc2cc(Cl)ccc12)Cc1ccncc1 [SJ000357449] ?
Result block: 9.295

Query block: So what does the record say about TR-FRET signal for Clc1ccc2c(NCCCN(Cc3ccccc3)CC3CC=CCC3)ccnc2c1 (stereo not drawn) [SJ000311182] ?
Result block: 16.09

Query block: So what does the record say about TR-FRET signal for CCCN(CCCNc1ccnc2cc(Cl)ccc12)Cc1c(Cl)ccc(Cl)c1Cl [SJ000523046] ?
Result block: 17.75

Query block: So what does the record say about TR-FRET signal for CCCN(CCCNc1ccnc2cc(C(F)(F)F)ccc12)Cc1cc(OC)ccc1O [SJ000361263] ?
Result block: 25.26

Query block: So what does the record say about TR-FRET signal for CCCNCCCNc1ccnc2cc(Cl)ccc12 [SJ000361119] ?
Result block: 9.785
